Origin of the recorded values: PubChem BioAssay AID1159580

- EXPERIMENTAL_PROTOCOL: chemical genetic growth profiling, strain panel (AID 1159580);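 note: tested at 20 µM; growth read once vehicle control cultures reached saturation at 30 °C; 1 = growth at the plate median or of vehicle wells; lower values mean less growth of the strain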
- EXPERIMENTAL_SETUP: S. cerevisiae deletion strains, growth OD, locus YFL009W, strain cdc4, stronger effect = lower value
The whole screen tested about 5,500 compounds, of which about 2,000 (36%) were called active. Another 18% or so got no clear call; they are omitted. The list shows a part of the results.
VALUE_TYPE: normalized growth
In your answer, state the number alone without any accompanying words.

Worked cases, normalized growth given:
>>> df
                                   compound         value_type  experimental_result
0  FC(F)(F)c1cccc(NC(=S)Nc2csc(C(F)(F)F)c2-c2ccccc2)c1  normalized growth                0.977
1  OC(CNCc1ccc(Cl)cc1)CO/N=C\C1=C(Cl)c2cc(Cl)ccc2OC1 (stereo unspecified)  normalized growth                0.976
2           CSc1cc(-c2ccncc2)nc(-c2cccs2)c1  normalized growth                0.975
3  O=C(NCCSCc1cccc(C(F)(F)F)c1)c1ccc(Cl)cc1  normalized growth                0.961
4        O=C(NCCSCc1ccco1)Nc1cc(Cl)cc(Cl)c1  normalized growth                0.956

Quick one: normalized growth of O=C(NCCSCc1cccc(C(F)(F)F)c1)Nc1cccc(C(F)(F)F)c1 ?
0.992
